target: T1, IFN-αWA (human, UniProt P05015 24-189); experiment: ProteOn, one antigen concentration
T1 construct: also called IFN-α16; alpha WA

Binder	Kd
IFWM3341 (antibody, V domains shown, VH IFWH624, VL IFWL991; converted mAb; also called IFWB3076) VH: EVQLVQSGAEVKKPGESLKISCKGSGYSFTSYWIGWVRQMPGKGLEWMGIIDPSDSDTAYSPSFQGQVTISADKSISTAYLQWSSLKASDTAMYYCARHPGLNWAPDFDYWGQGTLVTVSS VL: DIQMTQSPSSLSASVGDRVTITCRASQSINRFLNWYQQKPGKAPKLLIYAASSLQSGVPSRFSGSGSGTDFTLTISSLQPEDFATYYCQQAIDLPFTFGQGTKVEIK	0.134 nM
IFWM3335 (antibody, V domains shown, VH IFWH591, VL IFWL1084; converted mAb; also called IFWB3070) VH: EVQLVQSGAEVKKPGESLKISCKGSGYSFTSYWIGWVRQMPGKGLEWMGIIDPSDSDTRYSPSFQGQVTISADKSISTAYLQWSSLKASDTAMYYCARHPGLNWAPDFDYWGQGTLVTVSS VL: DIQMTQSPSSLSASVGDRVTITCRASQSINYLNWYQQKPGKAPKLLIYGASSLQSGVPSRFSGSGSGTDFTLTISSLQPEDFATYYCQQSHDWPITFGQGTKVEIK	0.137 nM
IFWM3340 (antibody, V domains shown, VH IFWH624, VL IFWL983; converted mAb; also called IFWB3075) VH: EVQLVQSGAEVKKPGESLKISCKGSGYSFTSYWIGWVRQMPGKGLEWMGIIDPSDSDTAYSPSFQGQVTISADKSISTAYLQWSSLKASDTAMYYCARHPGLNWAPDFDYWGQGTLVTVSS VL: DIQMTQSPSSLSASVGDRVTITCRASQSIDGSLNWYQQKPGKAPKLLIYFASSLQSGVPSRFSGSGSGTDFTLTISSLQPEDFATYYCQQSYDFPLTFGQGTKVEIK	0.056 nM
